- SUBJECT_OF_TEST: T1, tumor necrosis factor alpha (human (produced in the Human Secretome …, UniProt P01375 77-233, limits assumed))
- T1 construct: also called TNFα; bTNFα
- METHOD_DESCRIPTION: SPR Biacore T200, target on CM5 chip, ADAPT injected, 1:1 fit
Can you tell me pKd for the items I'm about to list?
Just so you know, pKd here is -log10 of the concentration in molar units; reply with that number alone.

Query: Consider the binder LIWAKAEAVQELFMYGVSDFYYDLIIKAKTVEGVEALKLHILAALP (designed binder, Single domain of about 6 kDa, made in E. coli, purified on HSA resin) [ADAPT variant TNFα_05] and give its recorded pKd.
Result: 8.60

Query: Consider the binder LIWAKASAVRELHRYGVSDFYYELIVKAKTVEGVEALKLHILAALP (designed binder) [ADAPT variant TNFα_09] and give its recorded pKd.
Result: 8.44
